- System: Rattus norvegicus
- Test summary: Tested for the induction of lower lip retraction (LLR) by the investigated compounds in rat at dosage of 2 mg/kg
- Type: functional

| Smiles str | Study system | LLR score |
| --- | --- | --- |
| COc1ccccc1N1CCN(CCCCn2nnc3ccccc32)CC1 | Rattus norvegicus | 0.2 |
| COc1ccccc1N1CCN(CCCCn2nc3ccccc3n2)CC1 | Rattus norvegicus | 0.3 |
| COc1ccccc1N1CCN(CCCn2nc3ccccc3n2)CC1 | Rattus norvegicus | 0.2 |
| COc1ccccc1N1CCN(CCCn2nnc3ccccc32)CC1 | Rattus norvegicus | 0.1 |

----------
- Tested on: Rattus norvegicus
- Test summary: Tested for the effect on 8-OH-DPAT-induced behavior in reserpine pretreated rat against forepaw treading at dosage of 4 mg/kg
- Type: functional
Property name: Behavioral score

| Smiles str | Property name | Measured result |
| --- | --- | --- |
| COc1ccccc1N1CCN(CCCCn2nnc3ccccc32)CC1 | Behavioral score | 10.3 |
| COc1ccccc1N1CCN(CCCn2nnc3ccccc32)CC1 | Behavioral score | 5.8 |
| COc1ccccc1N1CCN(CCCn2nc3ccccc3n2)CC1 | Behavioral score | 8 |
| COc1ccccc1N1CCN(CCCCn2nc3ccccc3n2)CC1 | Behavioral score | 5.1 |

----------
// reported LLR score per item
- Test system: Rattus norvegicus
- Test summary: Tested for the induction of lower lip retraction (LLR) by the investigated compounds in rat at dosage of 16 mg/kg
- Format: functional
Property name: LLR score

| Smiles str | Measured result |
| --- | --- |
| COc1ccccc1N1CCN(CCCCn2nnc3ccccc32)CC1 | 0.7 |
| COc1ccccc1N1CCN(CCCn2nnc3ccccc32)CC1 | 0.6 |
| COc1ccccc1N1CCN(CCCCn2nc3ccccc3n2)CC1 | 1.9 |
| COc1ccccc1N1CCN(CCCn2nc3ccccc3n2)CC1 | 0.3 |
